B1: HDV Ribozyme (parent)
chain: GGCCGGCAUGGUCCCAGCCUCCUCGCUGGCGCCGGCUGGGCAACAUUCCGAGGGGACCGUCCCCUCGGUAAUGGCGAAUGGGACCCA

Variants of: B1
METHOD DESCRIPTION: self-cleavage, relative activity (ratio to wild type); higher = more cleavage; co-transcriptional
Entries and their measured self-cleavage follow.
QUANTITY: self-cleavage

[[record]]
chain_sequence = "GGCCGGCAUGGUCCCAGCCUCCUCGCUGGCGCCGGCUGGGCAACCUUCCGAGGGGACCGUCCCCUCCGUAAUGGCGAAUGGGACCCA [A45C G67C]"
quantity = "self-cleavage"
observed_measurement = 0.731

[[record]]
chain_sequence = "GGCCGGCAUGGUCCCAGCCUCCUCGCUGGCGCCGGCUGGGCAACAUUCCGAGGGGACCGUCCCCUCGGUAAUGGGGAAUGGGAGCCA [C75G C84G]"
quantity = "self-cleavage"
observed_measurement = 0.282

[[record]]
chain_sequence = "GGCCGGCAUGGUCCCAGCCUCCUCGCUGGCGCCGGCUUGGCAACAUUCCGAGGGGACCGUCCCCUCUGUAAUGGCGAAUGGGACCCA [G38U G67U]"
quantity = "self-cleavage"
observed_measurement = 0.166

[[record]]
chain_sequence = "GGCCGGCAUGGUCCCAGCCUCCUCGCUGGCGCCGGCUGGUCAACAUUCCGAGGGGACCGUCCCCUCGGUAAUGGCGAAUGGGUCCCA [G40U A83U]"
quantity = "self-cleavage"
observed_measurement = 0.0936

